# measured_on: mouse CNPase catalytic domain (mouse, UniProt P16330)
# Sequence (P16330 179-398): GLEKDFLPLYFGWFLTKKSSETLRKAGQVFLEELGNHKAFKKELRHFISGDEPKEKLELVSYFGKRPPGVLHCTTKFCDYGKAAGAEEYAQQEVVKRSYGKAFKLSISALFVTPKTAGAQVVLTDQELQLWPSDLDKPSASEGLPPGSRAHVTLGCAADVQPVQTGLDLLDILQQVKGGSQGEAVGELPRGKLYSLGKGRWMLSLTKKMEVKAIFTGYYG
# measurement_description: ITC
experimental_readout: dH (kcal/mol)
Numbers only here, please. The scale is kcal/mol.

Some solved cases for reference:
[
  {
    "binder": "anti-CNPase nanobody NbCNP 10E (VHH) VHH: EVQLEESGGGLVQPGGSLRLSCAVSGITLDDFGIGWFRQAPGKEREGVACISPGYEHIYYADSAKGRFTISRDNAKNTVYLQMNNLKPWDTGVYYCAADNDLPDRLWGGSDWSDPSPYDYWGQGTQVTVSS",
    "unit_symbol": "kcal/mol",
    "measured_number": -12.1
  },
  {
    "binder": "anti-CNPase nanobody NbCNP 7E (VHH) VHH: EVQLEESGGGWVHPGGSLRLSCAASGNVFGVNTMAWYRQAPGKQREQRELVASITDYGTTEYADSVKGRFTISGDNAKATVYLQMNSLKPEDTAVYYCNMDLTVMTATSSLYAYDYWGQGTQVTVSS",
    "unit_symbol": "kcal/mol",
    "measured_number": -14.2
  },
  {
    "binder": "anti-CNPase nanobody NbCNP 8C (VHH) VHH: EVQLEESGGGLVQAGGSLTLSCAASGFTFDDYAMGWYRQAPGKERVGVSCISRTDGYTYYLDSVKGRFTISTDHAKHTVYLQMNNLKPDDTGLYYCAADADPEYGSRCPDPYYGMDYWGKGILVTVSS",
    "unit_symbol": "kcal/mol",
    "measured_number": -7.07
  }
]

Please turn your attention to the following entry.
Looking up MaBP-10E (His6-maltose binding protein fusion of NbCNP 10E) (VHH) VHH: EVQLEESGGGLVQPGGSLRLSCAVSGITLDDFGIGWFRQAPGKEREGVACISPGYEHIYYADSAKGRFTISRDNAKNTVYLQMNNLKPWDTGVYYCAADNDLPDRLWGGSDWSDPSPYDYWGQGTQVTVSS , I found its dH recorded as -18.1
